Biological target: Low molecular weight protein-tyrosine phosphatase A (Mycobacterium tuberculosis, UniProt P9WIA1)
Sequence (P9WIA1 whole entry): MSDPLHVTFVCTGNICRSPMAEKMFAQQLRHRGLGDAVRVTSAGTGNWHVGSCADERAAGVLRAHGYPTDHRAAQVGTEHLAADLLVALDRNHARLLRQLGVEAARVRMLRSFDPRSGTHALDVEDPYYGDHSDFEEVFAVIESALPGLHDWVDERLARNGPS
Assay: Non-competitive inhibition of Mycobacterium tuberculosis PTPA using p-nitrophenyl phosphate as substrate by Lineweaver-Burk plot analysis
Form field: IC50 (one value per entry).

molecule: O=C(O)/C1=C/C#Cc2ccccc2C#CCCNC1=O
IC50: 110 µM
--
molecule: O=C(O)C1CCCc2ccccc2CCCCNC1=O (racemic)
IC50: 236 µM

---

Target: UniProt P9WIA1
Sequence (P9WIA1 whole entry): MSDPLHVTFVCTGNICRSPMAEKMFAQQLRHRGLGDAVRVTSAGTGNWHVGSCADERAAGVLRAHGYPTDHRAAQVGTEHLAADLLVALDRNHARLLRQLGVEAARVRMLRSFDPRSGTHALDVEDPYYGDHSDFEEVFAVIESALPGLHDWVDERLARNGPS
pKi: −log10 of the molar value.
assay_metric: pKi

molecule: O=C(O)/C1=C/C#Cc2ccccc2C#CCCNC1=O
measured: 4.65

molecule: O=C(O)C1CCCc2ccccc2CCCCNC1=O (racemic)
measured: 3.99

These entries and their values trace back to ChEMBL document CHEMBL1781876.
